Substrate: gfPET
Assay: Proxy for plastic degradation [Released monomer concentration (HPLC/LC-MS) (TPA+MHET+BHET)]
Conditions: 40 °C
property_label: Proxy for plastic degradation (mmol/h)
Give the quantity in mmol/h, number only.

protein="unnamed (protein) MDNPYERGPDPTTQSVEAARGPYAVSQITVGGQFGSYSGGTIYYPTSTTDGKFGAVAIAPGFLSFQSSVAWLGPRIASQGFVVMTIDTGTIFDQPAQRGDQLLDALDFLTQRSSVKDRIDPNRLAVAGWSMGGGGSLEAAADRPSLKAAIPMAGWNLNTNWSRLTTPVLVVGVQNDLIAPVAMHSEPFYNSIRSEKAYLELAGGSHFTVTSANTPQAKLMISWLKRFVDNDTRYEQFICPGPSRGFSVSEYRSTCPF" property_label="Proxy for plastic degradation" test_value=0

Request: // query Proxy for plastic degradation value for entry unnamed (protein) MANPYERGPNPTDALLEARSGPFSVSEENVSRLSASGFGGGTIYYPRENNTYGAVAISPGYTGTEASIAWLGERIASHGFVVITIDTITTLDQPDSRAEQLNAALNHMINRASSTVRSRIDSSRLAVMGHSMGGGGSLRLASQRPDLKAAIPLTPWHLNKNWSSVTVPTLIIGADLDTIAPVATHAKPFYNSLPSSISKAYLELDGATHFAPNIPNKIIGKYSVAWLKRFVDNDTRYTQFLCPGPRDGLFGEVEEYRSTCPF
Response: 0

Request: Returns the measured Proxy for plastic degradation for the input protein. Input: unnamed (protein) MANPYERGPAPTTSSIEASRGPFAIASVTVSRSSVSGFGGGTIYYPRDTSEGTFGAVAIAPGFTADEGSMAWYGPRIASQGFVVFTIDTITRLDQPDSRGRQLLAALDYLTQRSSVRSRIDSSRLAVMGHSMGGGGSLEASVSRPSLKAAIPLTPWNLKKNWRDVRVPTLIVGAESDSIASVRTHAEPFYESIPSTTNKAYLELNNATHFAPNISNTTIAKYSISWLKRFVDNDTRYEQFLCPPPRPDRDIEEYRSTCPH
Response: 0
